# TGT: VEGFR-2 (Homo sapiens)
# Construct: lysed cells; endogenous in cells
# MEASUREMENT PROTOCOL: VEGFR-2 inhibitory properties by western blotting
# Assay type: cell-based
# SETTINGS: VEGFR-2 western blot band, normalised to beta actin, at 10 μM; control RQ 3.290
ENDPOINT NAME: Relative quantification (RQ)

Field: example entries. Status: answers known.
Q: Entry O=C(Nc1ccccc1)Nc1ccc(C(=O)/C=C2/C(=O)Nc3ccc(F)cc32)cc1 [Compound 12d] : reported Relative quantification (RQ) = ?
A: 0.491

Q: What value of Relative quantification (RQ) has been recorded for this entry: COc1ccc2c(c1)/C(=C\C(=O)c1ccc(NC(=O)Nc3ccccc3)cc1)C(=O)N2 [Compound 12j]
A: 0.678

Q: What Relative quantification (RQ) value was documented for this compound, Cc1ccc2c(c1)/C(=C\C(=O)c1ccc(NC(=O)Nc3ccccc3)cc1)C(=O)N2 [Compound 12h] ?
A: 0.475

Q: Please give the measured Relative quantification (RQ) for this compound: COc1ccc2c(c1)/C(=C\C(=O)c1cccc(NC(=O)Nc3ccccc3)c1)C(=O)N2 [Compound 12i]
A: 0.634

Q: Request the reported Relative quantification (RQ) associated with O=C(Nc1ccccc1)Nc1ccc(C(=O)/C=C2/C(=O)Nc3ccc(Cl)cc32)cc1 [Compound 12f]
A: 0.517

(1) O=C(Nc1ccccc1)Nc1ccc(C(=O)/C=C2/C(=O)Nc3ccc(Br)cc32)cc1 [Compound 12g]
(2) O=C(Nc1ccccc1)Nc1cccc(C(=O)/C=C2/C(=O)Nc3ccccc32)c1 [Compound 12a]
Q: Which one would you say has the larger Relative quantification (RQ) value: 1 , or 2 ? Answer with the label corresponding to your selection.
A: 2
(2: 0.746, 1: 0.500)

====

# Tested on: HCT116 (colon) carcinoma cell line
# MEASUREMENT PROTOCOL: MTT antiproliferation assay, HCT116
# Format: cell-based
# SETTINGS: in brackets after IC50; normal RPE1 relative to HCT116
ENDPOINT NAME: SI (safety/selectivity index), HCT116
In your answer, state the number alone without any accompanying words.

Q: What does the record list as SI (safety/selectivity index), HCT116 for O=C(Nc1ccccc1)Nc1ccc(C(=O)/C=C2/C(=O)Nc3ccc(Br)cc32)cc1 [Compound 12g] ?
A: 2.173

Note: attention shifts to another entry.
Q: Which SI (safety/selectivity index), HCT116 is listed for O=C(Nc1ccccc1)Nc1ccc(C(=O)/C=C2/C(=O)Nc3ccccc32)cc1 [Compound 12b] ?
A: 1.277

====

# TGT: VEGFR-2 (Homo sapiens, UniProt P35968)
# Construct: lysed cells; endogenous in cells
# Sequence (P35968 20-1356): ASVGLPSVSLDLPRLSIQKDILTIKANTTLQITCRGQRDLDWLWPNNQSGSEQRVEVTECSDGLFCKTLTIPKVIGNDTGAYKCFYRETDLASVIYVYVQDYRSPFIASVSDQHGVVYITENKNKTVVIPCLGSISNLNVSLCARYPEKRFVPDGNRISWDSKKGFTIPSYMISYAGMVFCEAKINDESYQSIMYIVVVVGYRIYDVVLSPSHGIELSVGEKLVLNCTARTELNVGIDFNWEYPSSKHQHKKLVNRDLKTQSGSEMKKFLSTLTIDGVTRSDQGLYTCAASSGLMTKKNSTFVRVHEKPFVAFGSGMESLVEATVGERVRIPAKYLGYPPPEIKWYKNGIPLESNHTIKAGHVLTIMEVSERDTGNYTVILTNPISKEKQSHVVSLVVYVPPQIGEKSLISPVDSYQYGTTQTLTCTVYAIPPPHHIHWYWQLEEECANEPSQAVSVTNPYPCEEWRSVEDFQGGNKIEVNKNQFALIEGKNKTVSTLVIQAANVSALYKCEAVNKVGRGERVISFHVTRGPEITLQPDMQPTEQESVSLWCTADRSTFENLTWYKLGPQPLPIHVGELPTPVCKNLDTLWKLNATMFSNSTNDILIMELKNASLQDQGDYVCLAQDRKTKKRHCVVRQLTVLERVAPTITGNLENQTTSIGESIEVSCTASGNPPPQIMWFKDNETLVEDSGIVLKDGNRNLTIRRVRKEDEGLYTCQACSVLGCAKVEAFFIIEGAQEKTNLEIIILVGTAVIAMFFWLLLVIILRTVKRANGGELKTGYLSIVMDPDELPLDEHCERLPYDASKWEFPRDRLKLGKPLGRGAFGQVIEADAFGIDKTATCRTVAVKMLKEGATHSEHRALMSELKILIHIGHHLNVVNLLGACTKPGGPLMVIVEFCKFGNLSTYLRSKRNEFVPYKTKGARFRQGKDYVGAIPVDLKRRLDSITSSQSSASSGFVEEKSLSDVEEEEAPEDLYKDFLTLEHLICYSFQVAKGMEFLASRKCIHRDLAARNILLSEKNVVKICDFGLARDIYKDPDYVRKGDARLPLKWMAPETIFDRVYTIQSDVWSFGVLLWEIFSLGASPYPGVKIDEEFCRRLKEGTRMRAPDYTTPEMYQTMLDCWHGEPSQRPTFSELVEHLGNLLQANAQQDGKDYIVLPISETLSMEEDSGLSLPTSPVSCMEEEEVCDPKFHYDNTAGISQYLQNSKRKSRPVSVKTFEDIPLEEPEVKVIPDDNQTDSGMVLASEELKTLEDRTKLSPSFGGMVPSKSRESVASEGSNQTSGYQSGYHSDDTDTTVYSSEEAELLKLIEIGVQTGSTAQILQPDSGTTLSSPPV
# MEASUREMENT PROTOCOL: VEGFR-2 inhibitory properties by western blotting
# Type: cell-based
# SETTINGS: western blotting, read-out: % Inhibition against VEGFR-2
ENDPOINT NAME: inhibition at 10 µM (%)

Q: Entry O=C(Nc1ccccc1)Nc1cccc(C(=O)/C=C2/C(=O)Nc3ccc(Cl)cc32)c1 [Compound 12e] has what inhibition at 10 µM?
A: 83.6

Q: I am curious: what inhibition at 10 µM value has been reported for O=C(Nc1ccccc1)Nc1cccc(C(=O)/C=C2/C(=O)Nc3ccccc32)c1 [Compound 12a] ?
A: 77.3

Q: Sample O=C(Nc1ccccc1)Nc1cccc(C(=O)/C=C2/C(=O)Nc3ccc(F)cc32)c1 [Compound 12c] — what was its inhibition at 10 µM?
A: 85.6

Q: Requested field: inhibition at 10 µM. Item: O=C(Nc1ccccc1)Nc1ccc(C(=O)/C=C2/C(=O)Nc3ccc(F)cc32)cc1 [Compound 12d]
A: 85.1

Q: Name the recorded inhibition at 10 µM for Cc1ccc2c(c1)/C(=C\C(=O)c1ccc(NC(=O)Nc3ccccc3)cc1)C(=O)N2 [Compound 12h] .
A: 85.6

Q: What measured inhibition at 10 µM goes with COc1ccc2c(c1)/C(=C\C(=O)c1ccc(NC(=O)Nc3ccccc3)cc1)C(=O)N2 [Compound 12j] ?
A: 79.4

Q: Query (molecule): O=C(Nc1ccccc1)Nc1ccc(C(=O)/C=C2/C(=O)Nc3ccc(Br)cc32)cc1 [Compound 12g] ; field requested: inhibition at 10 µM
A: 84.8

Q: inhibition at 10 µM lookup needed for O=C(Nc1ccccc1)Nc1ccc(C(=O)/C=C2/C(=O)Nc3ccc(Cl)cc32)cc1 [Compound 12f] , thanks.
A: 84.3

Q: Please report the recorded inhibition at 10 µM for O=C(Nc1ccccc1)Nc1ccc(C(=O)/C=C2/C(=O)Nc3ccccc32)cc1 [Compound 12b] .
A: 87.2

Q: Dear colleague, I am looking for the recorded inhibition at 10 µM of the following molecule: COc1ccc2c(c1)/C(=C\C(=O)c1cccc(NC(=O)Nc3ccccc3)c1)C(=O)N2 [Compound 12i]
A: 80.7
